The reported measurements were obtained from PubChem BioAssay (EPA / NIEHS).

- Read-out: Fatty Acid-Binding Protein 1 (FABP1), FABP1 (gene 2168)
- assay protocol: LTEA_HepaRG_FABP1: Life Technologies and Expression Analysis (LTEA) Assay for Fatty Acid-Binding Protein 1 (FABP1) using HepaRG (AID 2283494)
- test settings: mRNA level, 48 h; actives raise or lower the signal
Active and inactive are the calls of the source. How the source made its calls: active means hit-call score of the fitted dose curve at least 0.9, where 1 is the maximum; inactive means score below 0.9.
Possible outcomes: true for active, false for inactive

• c1cc(-c2ccncc2)ccn1 = false
• NC(=O)Cn1c(=O)cc(CCN2CCN(c3nccc4sccc34)CC2)c2ccc(F)cc21 = true
• COCCOCCOC = false
• Oc1ccc2c(c1)OC[C@@H](N1CCC(O)(c3ccc(F)cc3)CC1)[C@H]2O = false
• CNCc1cc(F)ccc1Oc1ccc(Cl)c(Cl)c1 = true
• CN[C@H]1CC[C@@H](c2ccc(Cl)c(Cl)c2)c2ccc(S(N)(=O)=O)cc21 = true
• Nc1ccccc1N = true
• CCCCCCCCCCCC(=O)OC = false
• CC(C)c1ccc(C(=O)N=C(N)N)cc1S(C)(=O)=O = false
• Cc1nc(-c2ccc3c(c2)CCN(CCC2CCC(NC(=O)/C=C/c4ccc(F)cc4)CC2)CC3)no1 (stereo not given) = false
• CC1(C)NC(=O)NC1=O = false
• CC(C)(C)c1cc(O)c(C(C)(C)C)cc1O = true
• C[Si]1(C)O[Si](C)(C)O[Si](C)(C)O[Si](C)(C)O1 = false
• CC(CO)OC(C)CO (stereo not given) (tested in a mixture with another compound) = false
• CCCCCCCCCCCCCCCC = false
• CCCCCCCCCCCCCCCCCC(=O)O = false
• FC(F)(F)C(F)(F)C(F)(F)C(F)(F)C(F)(F)C(F)(F)CCI = false
• Cc1oc(-c2ccccc2)nc1CCOc1cccc2c1ccn2CCC(=O)O = true
• OC[C@@H](O)[C@@H](O)[C@H](O)[C@H](O)CO = false
• Nc1ccc(S(=O)(=O)c2ccc(N)cc2)cc1 = false
• CCNc1cccc(C)c1 = false
• Cc1ccc(C(C)C)c(O)c1 = false
• CCCCC(CC)COC(=O)CC(C(=O)OCC(CC)CCCC)S(=O)(=O)O (stereo not given) = true
• CC=Cc1ccc(O)c(OC)c1 = false
• C=CCc1ccc(O)c(OC)c1 = false
• CCOc1ccc2c(c1)C(C)=CC(C)(C)N2 = true
• COc1ccc(S(=O)(=O)N2C(=O)[C@@](c3ccccc3OC)(N3C[C@H](O)C[C@H]3C(=O)N(C)C)c3cc(Cl)ccc32)c(OC)c1 = true
• NCCO = false
• CCCCCCCCCCC = false
• CNC(=O)[C@H]1O[C@@H](n2cnc3c(NCc4cc(Cl)ccc4OCc4cc(C)no4)ncnc32)[C@H](O)[C@@H]1N = false
• O=[N+]([O-])C(CO)(CO)CO = false
• Clc1cc(Cl)c(Cl)cc1Cl = false
• O=C(O)CCCCC(=O)O = false
• Cc1c(C(=O)O)c(O)cc2c1C(=O)c1c(O)c([C@@H]3O[C@H](CO)[C@@H](O)[C@H](O)[C@H]3O)c(O)c(O)c1C2=O = false
• CCCCCCOCCO = false
• Cc1cc(NC(=O)C(=O)O)cc(C)c1Oc1ccc(O)c2c1CCC2 = true
• CC(=O)OC/C=C(\C)CCC=C(C)C = false
• O=C(O)Cc1ccccc1Nc1c(Cl)cccc1Cl = false
• CN1CCN(Cc2cc(-c3ccc4[nH]c(=O)oc4c3)co2)[C@@H](c2ccc(F)cc2)C1 = false
• Oc1ccc2ccccc2c1N=Nc1ccccc1 = true
